Catalogue of Ki readings, one per entry.
Assay system: UniProt Q07820
Assay protocol: Cell free Mcl-1:Bim affinity assay (fluorescence polarization competition)
Format: binding
Condition: 15 nM MCL-1, 5 nM FITC-Bim, 1 hour at room temperature; class symbols; read-out: BIM_Ki

Solved cases below.
INSERT INTO measurements (molecule, assay_system, property, value) VALUES
  ('CC1(C)OC/C=C/[C@H](OC(=O)N2CCC(O)CC2)[C@@H]2CC[C@H]2CN2C[C@@]3(CCCc4cc(Cl)ccc43)COc3ccc(cc32)S(=O)(=O)NC1=O [Example 190]', 'UniProt Q07820', 'Ki', '< 1 nM'),
  ('CN(C)C1CN(C(=O)O[C@H]2/C=C/CN(C)C(C)(C)C(=O)NS(=O)(=O)c3ccc4c(c3)N(C[C@@H]3CC[C@H]32)C[C@@]2(CCCc3cc(Cl)ccc32)CO4)C1 [Example 214]', 'UniProt Q07820', 'Ki', '< 1 nM');

Request: Using known records, supply Ki for CO[C@@H]1/C=C/CN(C)C(C)(C)C(=O)NS(=O)(=O)c2ccc3c(c2)N(C[C@@H]2CC[C@H]21)C[C@@]1(CCCc2cc(Cl)ccc21)CO3 [Example 42]
Response: 1 to 100 nM

* * *

System: H929 cells
Assay protocol: Cell viability assay (H929 10 FBS)
Format: cell-based
Condition: Homo sapiens, NCI-H929, 24 hours, read-out: H929_10FBS IC50
Entries and their IC50 values follow.

# example entries with known answers
INSERT INTO assay_data (compound, value) VALUES
  ('COCCNC(=O)O[C@H]1/C=C/COC(C)(C)C(=O)NS(=O)(=O)c2ccc3c(c2)N(C[C@@H]2CC[C@H]21)C[C@@]1(CCCc2cc(Cl)ccc21)CO3 [Example 191]', '< 500 nM'),
  ('[2H]C([2H])([2H])N(C(=O)O[C@H]1/C=C/COC(C)(C)C(=O)NS(=O)(=O)c2ccc3c(c2)N(C[C@@H]2CC[C@H]21)C[C@@]1(CCCc2cc(Cl)ccc21)CO3)C([2H])([2H])[2H] [Example 47]', '< 500 nM'),
  ('CC(C)NC(=O)O[C@H]1/C=C/COC(C)(C)C(=O)NS(=O)(=O)c2ccc3c(c2)N(C[C@@H]2CC[C@H]21)C[C@@]1(CCCc2cc(Cl)ccc21)CO3 [Example 181]', '< 500 nM'),
  ('CO[C@@H]1/C=C/COC(C)(C)C(=O)NS(=O)(=O)c2ccc3c(c2)N(C[C@@H]2CC[C@H]21)C[C@@]1(CCCc2cc(Cl)ccc21)CO3 [Example 30]', '< 1000 nM'),
  ('CC1(C)OC/C=C/[C@H](OC(=O)NCC(F)F)[C@@H]2CC[C@H]2CN2C[C@@]3(CCCc4cc(Cl)ccc43)COc3ccc(cc32)S(=O)(=O)NC1=O [Example 179]', '< 500 nM');

Request: Look up IC50 of CN1C/C=C/[C@H](OCCN2CCCCC2)[C@@H]2CC[C@H]2CN2C[C@@]3(CCCc4cc(Cl)ccc43)COc3ccc(cc32)S(=O)(=O)NC(=O)C1(C)C [Example 289] and report it.
Response: > 1000 nM

Request: Please give the documented IC50 of O=C1Cc2cccc(c2)SC[C@@H]2CCC2CN2CC3(CCCc4cc(Cl)ccc43)COc3ccc(cc32)S(=O)(=O)N1 (some centres unmarked) [Example 25]
Response: > 1000 nM

Request: Determine its reported IC50: CC1(C)OC/C=C/[C@H](OC(=O)N[C@H]2CCOC2)[C@@H]2CC[C@H]2CN2C[C@@]3(CCCc4cc(Cl)ccc43)COc3ccc(cc32)S(=O)(=O)NC1=O [Example 61]
Response: < 500 nM

Request: Determine its reported IC50: CC1(C)OC/C=C/[C@H](OCC(=O)N[C@H]2CCOC2)[C@@H]2CC[C@H]2CN2C[C@@]3(CCCc4cc(Cl)ccc43)COc3ccc(cc32)S(=O)(=O)NC1=O [Example 285]
Response: < 500 nM

Request: Could you please provide reported IC50 for CC1(C)OC/C=C/[C@H](OC(=O)NC2CCOCC2)[C@@H]2CC[C@H]2CN2C[C@@]3(CCCc4cc(Cl)ccc43)COc3ccc(cc32)S(=O)(=O)NC1=O [Example 185] ? Thanks!
Response: < 500 nM

Request: Provide measured IC50 value, entry: CC1(C)OC/C=C/[C@H](OCC(=O)N2CCC2)[C@@H]2CC[C@H]2CN2C[C@@]3(CCCc4cc(Cl)ccc43)COc3ccc(cc32)S(=O)(=O)NC1=O [Example 279]
Response: < 500 nM

* * *

Assay system: MCL-1 (Homo sapiens (Human))
Assay protocol: Cell free Mcl-1:Bim affinity assay (fluorescence polarization competition)
Assay type: binding
Condition: 15 nM MCL-1, 5 nM FITC-Bim, 1 hour at room temperature; class symbols; read-out: BIM_Ki
Description: The binding affinity of each compound was measured via a fluorescence polarization competition assay, in which the compound competes for the same binding site with the ligand, and thus leads to a dose-dependent anisotropy reduction. The tracer ligand utilized was a fluorescein isothiocyanate labelled peptide (FITC-[…]) derived from Bim (GenScript). […]
Listed below: Ki values for each entry.

INSERT INTO results (structure_smiles_string, value) VALUES
  ('CN1C/C=C/[C@H](OCCN2CC[C@@H](F)C2)[C@@H]2CC[C@H]2CN2C[C@@]3(CCCc4cc(Cl)ccc43)COc3ccc(cc32)S(=O)(=O)NC(=O)C1(C)C', '< 1 nM'),
  ('CO[C@@H]1CCN(C(=O)O[C@H]2/C=C/COC3(CCC3)C(=O)NS(=O)(=O)c3ccc4c(c3)N(C[C@@H]3CC[C@H]32)C[C@@]2(CCCc3cc(Cl)ccc32)CO4)C1', '< 1 nM'),
  ('CN[C@@H]1CCN(C(=O)O[C@H]2/C=C/COC(C)(C)C(=O)NS(=O)(=O)c3ccc4c(c3)N(C[C@@H]3CC[C@H]32)C[C@@]2(CCCc3cc(Cl)ccc32)CO4)C1', '< 1 nM'),
  ('CNC(=O)O[C@H]1/C=C/CN(C)C(C)(C)C(=O)NS(=O)(=O)c2ccc3c(c2)N(C[C@@H]2CC[C@H]21)C[C@@]1(CCCc2cc(Cl)ccc21)CO3', '< 1 nM'),
  ('CCN1C/C=C/[C@H](OC(=O)N2CCC(OC)CC2)[C@@H]2CC[C@H]2CN2C[C@@]3(CCCc4cc(Cl)ccc43)COc3ccc(cc32)S(=O)(=O)NC(=O)C1(C)C', '< 1 nM');

Request: Specify reported Ki for the compound shown: CO[C@@H]1CCN(C(=O)O[C@H]2/C=C/CN(C)C(C)(C)C(=O)NS(=O)(=O)c3ccc4c(c3)N(C[C@@H]3CC[C@H]32)C[C@@]2(CCCc3cc(Cl)ccc32)CO4)C1
Response: < 1 nM

Request: Give a short answer stating reported Ki for CN(C)C(=O)O[C@H]1/C=C\COC(C)(C)C(=O)NS(=O)(=O)c2ccc3c(c2)N(C[C@@H]2CC[C@H]21)C[C@@]1(CCCc2cc(Cl)ccc21)CO3 .
Response: 1 to 100 nM

Request: Give Ki for CO[C@H]1/C=C/C[C@H](C)CC(=O)NS(=O)(=O)c2ccc3c(c2)N(C[C@@H]2CC[C@H]21)C[C@@]1(CCCc2cc(Cl)ccc21)CO3
Response: 1 to 100 nM

* * *

Assay system: MCL-1 (Homo sapiens (Human), UniProt Q07820)
Sequence (Q07820 whole entry): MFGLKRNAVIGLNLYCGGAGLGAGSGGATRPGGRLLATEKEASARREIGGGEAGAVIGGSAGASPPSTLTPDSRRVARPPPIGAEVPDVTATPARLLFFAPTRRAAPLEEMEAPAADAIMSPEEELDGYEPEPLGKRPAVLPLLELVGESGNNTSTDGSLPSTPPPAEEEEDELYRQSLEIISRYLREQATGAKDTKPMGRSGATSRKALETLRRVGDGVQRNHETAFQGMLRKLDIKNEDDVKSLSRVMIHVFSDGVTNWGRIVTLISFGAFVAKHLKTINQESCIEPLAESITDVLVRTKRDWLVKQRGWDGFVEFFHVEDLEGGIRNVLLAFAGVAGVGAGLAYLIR
Assay protocol: Cell free Mcl-1:Bim affinity assay (fluorescence polarization competition)
Type: binding
Condition: 15 nM MCL-1, 5 nM FITC-Bim, 1 hour at room temperature; class symbols; read-out: BIM_Ki
pKi: −log10 of the molar value.
Property: pKi

Answered cases to consult:
INSERT INTO measurements (structure_smiles_string, assay_system, value) VALUES
  ('O=C1CC/C=C/COC[C@@H]2CC[C@H]2CN2C[C@@]3(CCCc4cc(Cl)ccc43)COc3ccc(cc32)S(=O)(=O)N1', 'MCL-1 (Homo sapiens (Human), UniProt Q07820)', '7.00 to 9.00'),
  ('CO[C@H]1/C=C/CC[C@@H](C)C(=O)NS(=O)(=O)c2ccc3c(c2)N(C[C@@H]2CC[C@H]21)C[C@@]1(CCCc2cc(Cl)ccc21)CO3', 'MCL-1 (Homo sapiens (Human), UniProt Q07820)', '7.00 to 9.00'),
  ('CC1(C)OC/C=C/[C@H](OC(=O)NC2CCOCC2)[C@@H]2CC[C@H]2CN2C[C@@]3(CCCc4cc(Cl)ccc43)COc3ccc(cc32)S(=O)(=O)NC1=O', 'MCL-1 (Homo sapiens (Human), UniProt Q07820)', '> 9.00'),
  ('CO[C@@H]1/C=C\CN[C@@H](C)C(=O)NS(=O)(=O)c2ccc3c(c2)N(C[C@@H]2CC[C@H]21)C[C@@]1(CCCc2cc(Cl)ccc21)CO3', 'MCL-1 (Homo sapiens (Human), UniProt Q07820)', '7.00 to 9.00'),
  ('O=C1Cc2cccc(c2)S(=O)(=O)C[C@@H]2CC[C@H]2CN2C[C@@]3(CCCc4cc(Cl)ccc43)COc3ccc(cc32)S(=O)(=O)N1', 'MCL-1 (Homo sapiens (Human), UniProt Q07820)', '7.00 to 9.00');

Request: Supply recorded pKi for CN1C/C=C/[C@H](OC(=O)N[C@@H]2CCOC2)[C@@H]2CC[C@H]2CN2C[C@@]3(CCCc4cc(Cl)ccc43)COc3ccc(cc32)S(=O)(=O)NC(=O)C12CCC2 here.
Response: > 9.00

Request: Find the measured pKi of CN1C/C=C/[C@H](OCCN2CCCCC2)[C@@H]2CC[C@H]2CN2C[C@@]3(CCCc4cc(Cl)ccc43)COc3ccc(cc32)S(=O)(=O)NC(=O)C1(C)C and report it.
Response: 7.00 to 9.00

The measured values listed here are drawn from patent US11130769B2.
